- System Tested: human TLR7 (Homo sapiens)
- Experiment Summary: HEK293 hTLR7 NFKB-SEAP reporter assay
- Stated Conditions: HEK293 stably transfected with hTLR7, 24 h stimulation, aqueous formulations of choline salts (2% glycerol), SEAP readout; read-out: TLR7 ED50
Reported Metric: pEC50
Numbers only, as −log10 of the molar value.

A selection of reference data follows.
1. CC/C=C\CC(=O)OC[C@H](COP(=O)(O)OCCn1c(CCCC)nc2c(N)nc3ccccc3c21)OC(=O)C/C=C\CC [reference compound]
4.46
2. CCC[C@H](C)Oc1nc(N)c2[nH]c(=O)n(CC3CCN(CCO)CC3)c2n1
6.47
3. CCCCc1nc2c(N)nc3ccccc3c2n1CCO [reference compound]
6.24

human TLR7 (Homo sapiens) / pEC50 / "CCCCCCCC/C=C\CCCCCCCC(=O)OC[C@H](COP(=O)(O)OCCN1CCC(Cn2c(=O)[nH]c3c(N)nc(O[C@@H](C)CCC)nc32)CC1)OC(=O)CCCCCCC/C=C\CCCCCCCC" : value?
6.49

* * *

Hi there, I'd appreciate the recorded TLR7/8 ratio for every entry that follows.
- System Tested: human TLR7 (Homo sapiens, UniProt Q9NYK1)
- Construct: host or cells: HEK293
- Sequence (Q9NYK1 27-1049): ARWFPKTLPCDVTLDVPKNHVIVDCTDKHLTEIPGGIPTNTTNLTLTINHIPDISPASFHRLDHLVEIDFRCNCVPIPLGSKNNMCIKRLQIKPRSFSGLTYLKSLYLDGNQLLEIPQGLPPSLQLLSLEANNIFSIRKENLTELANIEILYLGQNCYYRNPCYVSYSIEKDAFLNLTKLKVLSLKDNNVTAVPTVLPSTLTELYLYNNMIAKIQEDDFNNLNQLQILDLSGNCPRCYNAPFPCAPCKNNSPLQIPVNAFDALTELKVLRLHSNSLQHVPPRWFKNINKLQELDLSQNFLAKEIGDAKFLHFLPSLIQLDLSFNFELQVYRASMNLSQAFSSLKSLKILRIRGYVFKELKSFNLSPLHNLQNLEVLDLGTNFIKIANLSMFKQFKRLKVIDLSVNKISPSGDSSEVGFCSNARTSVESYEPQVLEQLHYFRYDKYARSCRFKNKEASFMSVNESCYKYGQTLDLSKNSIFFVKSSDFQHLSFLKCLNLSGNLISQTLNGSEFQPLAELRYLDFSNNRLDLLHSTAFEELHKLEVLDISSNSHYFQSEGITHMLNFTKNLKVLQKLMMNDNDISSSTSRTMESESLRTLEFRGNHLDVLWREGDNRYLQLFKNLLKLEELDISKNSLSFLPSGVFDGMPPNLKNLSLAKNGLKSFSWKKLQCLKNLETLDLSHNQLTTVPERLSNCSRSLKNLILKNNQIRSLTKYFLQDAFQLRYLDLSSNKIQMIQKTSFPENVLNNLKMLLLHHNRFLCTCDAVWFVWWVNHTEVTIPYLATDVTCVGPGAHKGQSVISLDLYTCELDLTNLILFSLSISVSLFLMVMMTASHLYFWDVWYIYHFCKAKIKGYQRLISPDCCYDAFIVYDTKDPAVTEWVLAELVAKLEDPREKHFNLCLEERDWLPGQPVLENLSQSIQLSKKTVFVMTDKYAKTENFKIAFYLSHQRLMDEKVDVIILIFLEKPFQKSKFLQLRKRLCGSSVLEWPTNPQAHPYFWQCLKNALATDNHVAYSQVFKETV
- Experiment Summary: HEK293 hTLR7 NFKB-SEAP reporter assay
- Assay type: cell-based
- Stated Conditions: ratio of TLR7 ED50 to TLR8 ED50, HEK293 reporter cells
Numbers only.

A selection of reference data follows.
1. CC/C=C\CC(=O)OC[C@H](COP(=O)(O)OCCn1c(CCCC)nc2c(N)nc3ccccc3c21)OC(=O)C/C=C\CC [reference compound]
1.3
2. CCCCCCCC/C=C\CCCCCCCC(=O)OC[C@H](COP(=O)(O)OCCN1CCC(Cn2c(=O)[nH]c3c(N)nc(O[C@@H](C)CCC)nc32)CC1)OC(=O)CCCCCCC/C=C\CCCCCCCC [Compound 1]
0.7
3. CCC[C@H](C)Oc1nc(N)c2[nH]c(=O)n(CC3CCN(CCO)CC3)c2n1
0.6

Would you kindly look at the next entry?
So what's the measured TLR7/8 ratio for this one? CCCCc1nc2c(N)nc3ccccc3c2n1CCO [reference compound]
3.1

meta.source: patent US20210371440A1
